Some compounds, each annotated with its measured viability, T/C.
# Tested on: 885724-159-R-J1-PDC complex spheroid viability;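 further: spheroids exposed to agents for seven days before readout; percent of vehicle control viability where 100% = DMSO wells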
# Method notes: Anticancer human tumor 885724-159-R-J1-PDC patient-derived pancreatic adenocarcinoma cell line growth inhibition [GQUAD]
# Assay setup: second compound 10 µM; first compound 10 µM; hits give low values

Compound	Measurement unit	viability, T/C
O=c1[nH]cc(F)c(=O)[nH]1 + Cc1cnc(CNC(=O)c2c(=O)c3ccc(N4CCCN(C)CC4)nc3n3c2sc2ccccc23)cn1	%	72.2
CC1COCCN1c1cc(C2(O)CC3CCC(C2)O3)c2cnn(-c3ccn[nH]3)c2n1 (centres undefined) + CN(C)c1ccc(Nc2c3ccc(NC(=O)CCN4CCCC4)cc3nc3cc(NC(=O)CCN4CCCC4)ccc23)cc1	%	23.3
CC(C)(O)C1CCC(Nc2ccc3ncc(-c4cccc(C(F)(F)F)c4)n3n2)CC1 (centres undefined) + CN(C)c1ccc(Nc2c3ccc(NC(=O)CCN4CCCC4)cc3nc3cc(NC(=O)CCN4CCCC4)ccc23)cc1	%	7.17
COc1cccc2c1C(=O)c1c(O)c3c(c(O)c1C2=O)CC(O)(C(=O)CO)CC3OC1CC(N)C(O)C(C)O1 (centres undefined) + Cc1[nH]c2ccc(F)cc2c1-c1nc2c3cccnc3c3ncccc3c2[nH]1	%	1.06
CC(C)(O)C1CCC(Nc2ccc3ncc(-c4cccc(C(F)(F)F)c4)n3n2)CC1 (centres undefined) + Cc1[nH]c2ccc(F)cc2c1-c1nc2c3cccnc3c3ncccc3c2[nH]1	%	35.4
C=CCn1c(=O)c2cnc(Nc3ccc(N4CCN(C)CC4)cc3)nc2n1-c1cccc(C(C)(C)O)n1 + Cc1[nH]c2ccc(F)cc2c1-c1nc2c3cccnc3c3ncccc3c2[nH]1	%	38.1
CCCS(=O)(=O)Nc1ccc(F)c(C(=O)c2c[nH]c3ncc(-c4ccc(Cl)cc4)cc23)c1F + Cc1[nH]c2ccc(F)cc2c1-c1nc2c3cccnc3c3ncccc3c2[nH]1	%	43.6
O=C(NO)c1cnc(N2CCN(S(=O)(=O)c3ccc4ccccc4c3)CC2)nc1 + CN(C)c1ccc(Nc2c3ccc(NC(=O)CCN4CCCC4)cc3nc3cc(NC(=O)CCN4CCCC4)ccc23)cc1	%	2.05
CC1COCCN1c1cc(-c2ccnn2C)c2ccnc(-c3ccn[nH]3)c2n1 (centres undefined) + Cc1cnc(CNC(=O)c2c(=O)c3ccc(N4CCCN(C)CC4)nc3n3c2sc2ccccc23)cn1	%	25.2
